remaining activity at 10 µM values, listed per item
Molecular target: UniProt P27487
Sequence (P27487 whole entry): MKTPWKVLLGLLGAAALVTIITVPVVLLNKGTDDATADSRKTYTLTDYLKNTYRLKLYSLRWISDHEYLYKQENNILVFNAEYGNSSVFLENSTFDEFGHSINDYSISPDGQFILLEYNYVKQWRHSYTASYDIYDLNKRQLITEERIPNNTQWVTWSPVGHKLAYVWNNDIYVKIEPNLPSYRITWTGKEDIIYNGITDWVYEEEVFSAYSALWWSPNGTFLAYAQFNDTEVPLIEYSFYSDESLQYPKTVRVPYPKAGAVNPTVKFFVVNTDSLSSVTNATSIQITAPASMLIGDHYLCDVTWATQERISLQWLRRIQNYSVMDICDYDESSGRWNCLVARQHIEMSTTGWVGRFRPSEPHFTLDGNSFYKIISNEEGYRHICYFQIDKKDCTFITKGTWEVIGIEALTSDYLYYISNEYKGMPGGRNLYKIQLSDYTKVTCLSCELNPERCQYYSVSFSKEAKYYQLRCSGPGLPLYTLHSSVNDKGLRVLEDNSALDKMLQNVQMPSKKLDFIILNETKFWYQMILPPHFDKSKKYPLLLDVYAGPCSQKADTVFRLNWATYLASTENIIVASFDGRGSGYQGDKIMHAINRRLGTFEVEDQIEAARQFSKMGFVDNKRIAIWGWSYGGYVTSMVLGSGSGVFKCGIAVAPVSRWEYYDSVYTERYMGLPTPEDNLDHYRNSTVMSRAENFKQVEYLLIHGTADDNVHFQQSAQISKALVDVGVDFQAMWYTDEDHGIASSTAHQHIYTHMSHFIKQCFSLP
Assay: DPP4 activity assay (DPP4 inhibitor screening assay kit, Cayman);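 also: fluorescence read at excitation 360 nm and emission 460 nm after the enzyme reaction ran 30 min at 37 °C in a 96-well plate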
Format: biochemical
Parameters: purchased Cayman Chemical, Ann Arbor, MI, USA
Conditions: 0.5 h, 10 µM; control mean 100.0; mean of Exp 1-3; read-out: DPP4 activity in library screen, Mean
Please reply with the bare figure in % and do not write the unit itself.

INSERT INTO results (molecule, reported_result) VALUES
  ('O=c1c(O)c(-c2ccc(O)c(O)c2)oc2cc(O)cc(O)c12', 65.6),
  ('C=C[C@H]1CN2CC[C@H]1C[C@H]2[C@H](O)c1ccnc2ccccc12', 95.1),
  ('C[C@H]1[C@H](C)CC[C@]2(C(=O)O)CC[C@]3(C)C(=CC[C@@H]4[C@@]5(C)CC[C@H](O)C(C)(C)[C@@H]5CC[C@]43C)[C@H]12', 84.4);

Exam item: Using known records, supply remaining activity at 10 µM for "C[C@@H]1CC[C@@]2(OC1)O[C@H]1C[C@H]3[C@@H]4CC=C5C[C@@H](O[C@@H]6O[C@H](CO)[C@@H](O[C@@H]7O[C@@H](C)[C@H](O)[C@@H](O)[C@H]7O)[C@H](O)[C@H]6O[C@@H]6O[C@@H](C)[C@H](O)[C@@H](O)[C@H]6O)CC[C@]5(C)[C@H]4CC[C@]3(C)[C@H]1[C@@H]2C"
Marked response: 93.1
